Molecular target: 5-LOX (Homo sapiens)
Sequence (P09917 1-674): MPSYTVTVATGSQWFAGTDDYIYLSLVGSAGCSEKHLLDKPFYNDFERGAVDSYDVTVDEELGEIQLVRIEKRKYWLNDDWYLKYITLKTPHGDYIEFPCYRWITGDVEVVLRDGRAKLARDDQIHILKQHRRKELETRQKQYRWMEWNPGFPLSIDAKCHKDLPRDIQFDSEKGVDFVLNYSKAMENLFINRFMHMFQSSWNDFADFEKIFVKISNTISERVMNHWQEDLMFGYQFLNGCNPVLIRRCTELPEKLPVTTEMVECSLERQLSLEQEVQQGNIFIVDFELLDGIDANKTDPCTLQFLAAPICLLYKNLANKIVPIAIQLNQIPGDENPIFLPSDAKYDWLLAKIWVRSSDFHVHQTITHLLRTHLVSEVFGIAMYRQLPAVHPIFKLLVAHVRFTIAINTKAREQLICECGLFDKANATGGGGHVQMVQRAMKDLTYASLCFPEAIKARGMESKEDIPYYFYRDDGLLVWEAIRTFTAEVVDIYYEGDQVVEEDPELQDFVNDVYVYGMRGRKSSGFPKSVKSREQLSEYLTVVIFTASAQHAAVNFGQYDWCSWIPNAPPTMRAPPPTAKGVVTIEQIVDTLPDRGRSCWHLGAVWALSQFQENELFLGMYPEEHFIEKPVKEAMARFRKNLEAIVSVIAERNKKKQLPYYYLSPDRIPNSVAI
Assay: Cell-free 5-LOX enzymatic assay
Type: biochemical
Details: read-out: IC50 Enzymatic assay; cell-free, human 5-LOX, triplicate
metric.name: IC50 (nM)
Expressed in nM, but write only the number.

Report measured IC50; entry is CC(C)(C)c1cc(NC(=O)c2cc(-c3ccc(C(F)(F)F)cc3)n(-c3ccc(S(C)(=O)=O)cc3)n2)cc(C(C)(C)C)c1O [5i] 127

---

Biological target: 5-LOX (Homo sapiens, UniProt P09917)
Test: Inhibition of 5-LOX product synthesis
Assay type: cell-based
metric.name: IC50 (µM)
Expressed in µM, but write only the number.

Observe how each entry below is paired with its result.
- Cc1ccc(-c2cc(C(=O)Nc3cc(C(C)(C)C)c(O)c(C(C)(C)C)c3)nn2-c2ccc(F)cc2)cc1: 10.2
- CC(C)(C)c1cc(NC(=O)c2cc(-c3ccc4c(c3)OCCO4)n(-c3ccc(S(C)(=O)=O)cc3)n2)cc(C(C)(C)C)c1O: 4.65
- CC(C)(C)c1cc(NC(=O)c2cc(-c3ccc(Br)s3)n(-c3ccc(S(N)(=O)=O)cc3)n2)cc(C(C)(C)C)c1O: 5.83
- CC(C)(C)c1cc(NC(=O)c2cc(C3CCCCC3)n(-c3ccc(S(N)(=O)=O)cc3)n2)cc(C(C)(C)C)c1O: 33.9
- COc1ccc(-c2cc(C(=O)Nc3cc(C(C)(C)C)c(O)c(C(C)(C)C)c3)nn2-c2ccc(S(N)(=O)=O)cc2)cc1: 4.87
- CC(C)(C)c1cc(NC(=O)c2cc(-c3ccc4ccccc4c3)n(-c3ccc(S(N)(=O)=O)cc3)n2)cc(C(C)(C)C)c1O: 2.11

Report measured IC50; entry is CC(C)(C)c1cc(NC(=O)c2cc(-c3ccc4c(c3)OCO4)n(-c3ccc(S(N)(=O)=O)cc3)n2)cc(C(C)(C)C)c1O 1.08

Report measured IC50; entry is CC(C)(C)c1cc(NC(=O)c2cc(-c3ccc4c(c3)OCO4)n(-c3ccc(S(C)(=O)=O)cc3)n2)cc(C(C)(C)C)c1O 0.94

Ref: paper PMC4724694
